Quick reference for in vitro CLint exp assay among some compounds
# Tested on: pooled primary human hepatocyte suspensions
# Measurement Notes: Hepatic clearance assay (substrate depletion, LC-MS)
# Condition Notes: pooled primary human hepatocyte suspensions; in µL/min/10^6 cells
Just the number, please, no unit attached.

| Compound | System Under Test | in vitro CLint exp assay |
| --- | --- | --- |
| O=C(O)CCC(F)(F)C(F)(F)C(F)(F)F | pooled primary human hepatocyte suspensions | 0 |
| O=C(O)C(F)(F)C(F)(F)C(F)F | pooled primary human hepatocyte suspensions | 0 |

// sample O=C(O)C(F)(F)C(F)(F)C(F)(F)C(F)(F)C(F)(F)C(F)(F)C(F)(F)C(F)(F)C(F)(F)C(F)(F)F , its in vitro CLint exp assay was 0

Entry O=S(=O)(O)CCC(F)(F)C(F)(F)C(F)(F)C(F)(F)F ; in vitro CLint exp assay = 4.28

// field: in vitro CLint exp assay; key: O=C(O)C(F)(F)OC(F)(F)C(F)(F)OC(F)(F)F ; value = 0

Recorded result, O=C(O)C(F)(F)C(F)(F)C(F)(F)C(F)(F)C(F)(F)C(F)(F)C(F)(F)C(F)(F)C(F)(F)F , in vitro CLint exp assay: 0

Value of in vitro CLint exp assay reported for the compound O=C(O)CCC(F)(F)C(F)(F)C(F)(F)C(F)(F)C(F)(F)F is 11.84
